normalized growth overview
Assay Method Text: chemical genetic growth profiling, strain panel (AID 1159580);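 further: tested at 20 µM; growth read once vehicle control cultures reached saturation at 30 °C; 1 = growth at the plate median or of vehicle wells; lower values mean less growth of the strain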
Recorded Conditions: S. cerevisiae deletion strains, growth OD, locus YKL085W, strain MDH1, hits give low values
In all, about 5,500 compounds went through this assay and about 2,000 (36%) were called active. About 18% were inconclusive and are not listed. The list shows a part of the results.
Give a plain numeric answer without units written out.

Here is how some compounds turned out for normalized growth.
COc1ccc2c(c1OC)OC[C@@H](c1ccc(OC)c(OC)c1OC)C2 = 0.993
CC(=O)N[C@@H](Cc1c[nH]c2ccccc12)C(=O)O = 1.01
CNC(Cc1c[nH]c2ccccc12)C(=O)O (stereo not drawn) = 0.983
COc1ccc(C(=O)O)c(O)c1OC = 0.996
CC(=O)OCC(=O)[C@@]12OC3(CCCC3)O[C@@H]1CC1C3CCC4=CC(=O)C=C[C@]4(C)[C@@]3(F)[C@@H](O)C[C@@]12C (stereo partly drawn) = 0.994

Enquiry: I am curious: what normalized growth value has been reported for O=C(O)[C@H](O)[C@@](O)(Cc1ccc(O)cc1)C(=O)O ?
Return: 1.02

Enquiry: Same lookup for COc1cc2c(cc1OC)[C@@H]1C(=O)c3ccc4c(c3O[C@@H]1CO2)CC(C(C)C)O4 (stereo partly drawn) , please.
Return: 0.999

----------
Assay Method Text: chemical genetic growth profiling, strain panel (AID 1159580)
Recorded Conditions: S. cerevisiae deletion strains, growth OD, locus YIL125W, strain kgd1
The campaign covered roughly 5,500 compounds. About 2,000 (36%) were called active. Not shown: some 18% with an inconclusive outcome. Rule as the data show it: active = normalized growth mostly below about 0.91 (no sharp cut-off); inconclusive = no clear call, values can overlap the other calls; inactive = mostly above about 0.92. The list shows a part of the results.
Please state which outcome applies, choosing from YES = active, NO = inactive

Previously resolved entries follow.
CC(=O)CC1CCCCN1 (stereo unspecified) = NO
CCC1(CC)C(=O)C=CNC1=O = NO
O=C(O)c1cc(=O)c2c(Cl)cc(Cl)cc2[nH]1 = NO

Enquiry: Record request — test call for COc1cc(-c2coc3cc(O[C@@H]4O[C@H](CO)[C@@H](O)[C@H](O)[C@H]4O)c(OC)c(O)c3c2=O)cc(O)c1OC
Return: NO

Enquiry: Same lookup for CC(NCCC(c1ccccc1)c1ccccc1)c1ccccc1 (stereo unspecified) , please.
Return: NO

Enquiry: Same lookup for COc1cc(-c2oc3cc(O)ccc3c(=O)c2O)cc(OC)c1OC , please.
Return: NO

Enquiry: Same lookup for CC(=O)Oc1cc2c(c(C)c1OC(C)=O)CC1OC13C2(C)CCC1(C)C2CC(C)(C(=O)O)CCC2(C)CCC13C (stereo unspecified) , please.
Return: NO

Enquiry: Same lookup for COc1ccc([C@H]2COc3c(ccc(O)c3OC)C2)c(OC)c1O , please.
Return: NO

Enquiry: Same lookup for O=C(OC[C@H]1O[C@H](OC(=O)c2cc(O)c(O)c(OC(=O)c3cc(O)c(O)c(O)c3)c2)[C@H](OC(=O)c2cc(O)c(O)c(OC(=O)c3cc(O)c(O)c(O)c3)c2)[C@@H](OC(=O)c2cc(O)c(O)c(OC(=O)c3cc(O)c(O)c(O)c3)c2)[C@@H]1OC(=O)c1cc(O)c(O)c(OC(=O)c2cc(O)c(O)c(O)c2)c1)c1cc(O)c(O)c(OC(=O)c2cc(O)c(O)c(O)c2)c1 , please.
Return: YES

Enquiry: Same lookup for O=C(CCc1ccc(O)cc1)c1c(O)cc(O)cc1O[C@@H]1O[C@H](CO)[C@@H](O)[C@H](O)[C@H]1O , please.
Return: NO

Enquiry: Same lookup for NCCc1c[nH]c2ccccc12 , please.
Return: NO

----------
Assay Method Text: chemical genetic growth profiling, strain panel (AID 1159580)
Recorded Conditions: S. cerevisiae deletion strains, growth OD, locus YPL055C, strain LGE1, hits give low values
The whole screen tested about 5,500 compounds, of which about 2,000 (36%) were called active. About 18% were inconclusive and are not listed. This is one part of the list.
Property Label: normalized growth
Give a plain numeric answer without units written out.

Here is how some compounds turned out for normalized growth.
CC(=O)NCCc1c[nH]c2ccccc12 = 1
CN(C)S(=O)(=O)c1ccc2c(c1)/C(=C/c1cc3c([nH]1)CCCC3)C(=O)N2 = 0.985
C[C@]12CCC(=O)C=C1CCC1C2C(=O)C[C@@]2(C)C1CC[C@]2(O)C(=O)CO (some centres not stated) = 0.992
Nc1ncnc2c1nc(Br)n2C1OC2COP(=O)(O)O[C@@H]2C1O (some centres not stated) = 1.01

Enquiry: I am curious: what normalized growth value has been reported for CC(=O)NC(=O)/C(C#N)=C/N1CCN(Cc2ccccc2)CC1 ?
Return: 1.05

Enquiry: Same lookup for CCOC(=O)c1cnc2nc(SC)nn2c1N , please.
Return: 0.942

----------
normalized growth overview
Assay Method Text: chemical genetic growth profiling, strain panel (AID 1159580);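 further: tested at 20 µM; growth read once vehicle control cultures reached saturation at 30 °C; 1 = growth at the plate median or of vehicle wells; lower values mean less growth of the strain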
Recorded Conditions: S. cerevisiae deletion strains, growth OD, locus YCL069W, strain vba3, hits give low values
About 2,000 (36%) of roughly 5,500 compounds were called active. Not shown: some 18% with an inconclusive outcome. The list shows a part of the results.
Give a plain numeric answer without units written out.

Here is how some molecules turned out for normalized growth.
CN1CCN(CCC=C2c3ccccc3Sc3ccc(S(=O)(=O)N(C)C)cc32)CC1 = 0.971
COc1cc(NS(=O)(=O)c2ccc(N)cc2)ncn1 = 0.98
CC(NCCC(c1ccccc1)c1ccccc1)c1ccccc1 (configuration not stated) = 1.01
O=C(CCBr)N1CCN(C(=O)CCBr)CC1 = 1.02
CC(=O)OCC(=O)[C@@]12OC3(CCCC3)O[C@@H]1CC1C3CCC4=CC(=O)C=C[C@]4(C)[C@@]3(F)[C@@H](O)C[C@@]12C (some centres not stated) = 1.02
COc1cc2c(cc1OC)[C@@]13CCN4CC5=CCOC6CC(=O)N2C1[C@H]6[C@H]5C[C@H]43 (some centres not stated) = 0.995
CCCCc1nc(Cl)c(CO)n1Cc1ccc(-c2ccccc2-c2nn[nH]n2)cc1 = 0.985
CCOC([O-])=Nc1c[n+](N2CCOCC2)no1 = 0.996
CCc1cccc2c3c([nH]c12)C(CC)(CC(=O)O)OCC3 (configuration not stated) = 0.976
CN(C)CCc1c[nH]c2ccc(C[C@H]3COC(=O)N3)cc12 = 1.01

Enquiry: I am curious: what normalized growth value has been reported for COc1cc2c(cc1O)CCNC2C (configuration not stated) ?
Return: 0.996

Enquiry: Same lookup for Cc1c(NC(=O)c2cccnc2)c(=O)n(-c2ccccc2)n1C , please.
Return: 0.989

Enquiry: Same lookup for CC(=O)OC[C@H]1O[C@@H](Oc2cc(OC(C)=O)c3c(=O)cc(-c4ccc(OC(C)=O)cc4)oc3c2)[C@H](OC(C)=O)[C@@H](OC(C)=O)[C@@H]1OC(C)=O , please.
Return: 0.979

Enquiry: Same lookup for NC[C@H]1O[C@H](O[C@H]2C(O[C@@H]3O[C@H](CO)[C@@H](O)[C@H]3O)[C@@H](O)[C@H](N)C[C@@H]2N)[C@H](N)[C@@H](O)[C@@H]1O (some centres not stated) , please.
Return: 0.997

----------
Assay Method Text: chemical genetic growth profiling, strain panel (AID 1159580);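 further: tested at 20 µM; growth read once vehicle control cultures reached saturation at 30 °C; 1 = growth at the plate median or of vehicle wells; lower values mean less growth of the strain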
Recorded Conditions: S. cerevisiae deletion strains, growth OD, locus YPL106C, strain sse1, hits give low values
The whole screen tested about 5,500 compounds, of which about 2,000 (36%) were called active. Not shown: some 18% with an inconclusive outcome. The list shows a part of the results.
Property Label: normalized growth

Here is how some molecules turned out for normalized growth.
CC(=O)[C@@]1(O)CCC2C3CCC4=CC(=O)CC[C@]4(C)C3CC[C@@]21C (stereo partly specified) = 1.02 (inactive)
CC1=NN(c2ccccc2)C(=O)C1 = 1.01 (inactive)
CC(=O)Oc1ccccc1C(=O)O = 0.976 (inactive)
CCNc1nc(Cl)nc(NCC)n1 = 0.987 (inactive)
COc1cc2c(cc1OC)[C@@H]1C(=O)c3ccc4c(c3O[C@@H]1CO2)CC(C(C)C)O4 (stereo partly specified) = 1 (inactive)

Switching to the query record.
Enquiry: I am curious: what normalized growth value has been reported for Cc1c(NC(=O)c2cccnc2)c(=O)n(-c2ccccc2)n1C ?
Return: 0.992 (inactive)

----------
Assay Method Text: chemical genetic growth profiling, strain panel (AID 1159580);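 further: tested at 20 µM; growth read once vehicle control cultures reached saturation at 30 °C; 1 = growth at the plate median or of vehicle wells; lower values mean less growth of the strain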
Recorded Conditions: S. cerevisiae deletion strains, growth OD, locus YHR087W, strain rtc3, hits give low values
The whole screen tested about 5,500 compounds, of which about 2,000 (36%) were called active. Another 18% or so got no clear call; they are omitted. The list shows a part of the results.
normalized growth overview
Give a plain numeric answer without units written out.

Cc1cc(C)cc(N2C(=O)CC(Sc3ccccc3C(=O)O)C2=O)c1 (stereo unspecified) = 0.987
COc1cccc(NC(N)=S)c1 = 0.997
O/N=C\c1sccc1Oc1ccccc1 = 1.01
O=C1CCCN1c1ccc(Cl)c(Cl)c1 = 0.989
CN(C(=O)Nc1ccccc1)n1cnc2ccccc2c1=O = 0.994
Cc1nn(-c2ccccc2)nc1C(=O)NNC(=S)Nc1ccc(Cl)cc1 = 0.988

Enquiry: I am curious: what normalized growth value has been reported for O=C(Nc1cccnc1)c1cccc(Cl)c1Cl ?
Return: 0.99

Enquiry: Same lookup for CC(C)(C)c1ccc(CSc2nc(N)cc(=O)[nH]2)cc1 , please.
Return: 0.993

Enquiry: Same lookup for COc1cc(C=Nc2ccc(F)cc2)cc(OC)c1OC , please.
Return: 1.01

Enquiry: Same lookup for N#Cc1ccc(Oc2ccc(Cl)cc2)nc1 , please.
Return: 0.992

Enquiry: Same lookup for CCC(=O)Nc1cc(OC)cc(OC)c1 , please.
Return: 1

Enquiry: Same lookup for C=CCn1c(COc2c(Br)cc(C)c3c2CCC3)n[nH]c1=S , please.
Return: 1.01

Data origin, for the record: PubChem BioAssay AID1159580
